Assay: CellTiter-Glo 2.0 cell viability assay in PBMC
Assay type: cell-based, human
Conditions: human; CellTiter-Glo 2.0; PBMC; read-out: Cell viability in PBMC; CC50
endpoint-name: CC50 at 48 h

What value of CC50 at 48 h has been recorded for this entry: COc1oc(C2C/C(=C/C(C)=C/c3ccc(C(F)(F)F)cc3)CO2)c(C)c(=O)c1C (stereo not shown) > 10 µM

====

Assay: CellTiter-Glo 2.0 cell viability assay in PBMC
Type: cell-based, human
Details: human
endpoint-name: CC50 at 48 h (nM)
Write the number in nM without appending the unit.

# query: CC50 at 48 h of entry `CN1CC[C@H](c2c(O)cc(O)c3c(=O)cc(-c4ccccc4Cl)oc23)[C@H](O)C1` 120

From: paper PMC6987146
